Source listed as patent US20240325555A1.

Molecular target: T1, human LIV-1 (human, UniProt Q13433 29-755)
T1 sequence (looked up): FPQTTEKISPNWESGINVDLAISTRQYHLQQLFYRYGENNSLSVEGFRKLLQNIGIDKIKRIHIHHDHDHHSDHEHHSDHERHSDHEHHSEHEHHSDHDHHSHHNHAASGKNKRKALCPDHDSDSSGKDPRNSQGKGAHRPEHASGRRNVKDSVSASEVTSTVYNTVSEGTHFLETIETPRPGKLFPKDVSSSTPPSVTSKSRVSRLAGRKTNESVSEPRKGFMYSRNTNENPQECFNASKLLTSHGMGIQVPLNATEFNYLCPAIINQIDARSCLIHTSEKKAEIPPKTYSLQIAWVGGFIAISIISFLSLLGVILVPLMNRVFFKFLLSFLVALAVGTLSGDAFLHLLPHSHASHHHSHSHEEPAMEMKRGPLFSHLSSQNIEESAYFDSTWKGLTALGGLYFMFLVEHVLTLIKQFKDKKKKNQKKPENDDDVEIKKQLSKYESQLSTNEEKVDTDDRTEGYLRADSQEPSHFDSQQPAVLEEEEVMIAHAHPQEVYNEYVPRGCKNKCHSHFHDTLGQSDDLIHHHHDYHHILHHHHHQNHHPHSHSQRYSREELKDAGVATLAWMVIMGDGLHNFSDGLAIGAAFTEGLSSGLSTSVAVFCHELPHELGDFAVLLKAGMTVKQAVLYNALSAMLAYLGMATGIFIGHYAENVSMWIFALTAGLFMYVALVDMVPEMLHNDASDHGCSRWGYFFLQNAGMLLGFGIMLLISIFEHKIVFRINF
Assay: cell-based or functional assay
Please respond with label 1 when measured ADCC reporter EC50 is strictly beneath 6 nM, and with label 0 in all other cases.

1. 59C12C8 (antibody, V domains shown, Tested as chimeric antibody) VH: EVQLQQSGAELVRSGASVKLSCTASDFNIEDYYIHWVKQRPEQGLEWIGWIDPENGDTEYAPKFQGKATMTADTSSNTAYLQLSSLTSEDTAVYYCPHGGGFRVFDYWGQGTTLTVSS VL: DVLMTQTPLSLPVSLGDQASISCRSSQRIVHSNGNTYLEWYLQKPGQSPKLLIYKVSNRFSGVPDRFSGSGSGTDFTLKISRVEAEDLGVYYCFQGSHVPWTFGGGTKLEIK
label 1
2. 69B3D6 (antibody, V domains shown, Tested as chimeric antibody) VH: QVQLQQSGPELVKPGASVRISCKASGYTFTSYHMHWVKQRPGQGLEWIGWIYPGNVKNQSNEKFKGKATLTADKSSSTAYMQLSSLTSEDSAVYFCARSDITRAFFAYWGQGTLVTVSA VL: DVLMTQTPLSLPVSLGDQASISCRSSQSIVHSNGNTYLEWYLQKPGQSPKLLIYKVSNRFSGVPDRFSGSGSGTDFTLKISRVEAEDLGVYYCFQGSHVPYTFGGGTKLEIK
label 0
3. 290F10G10 (antibody, V domains shown, Tested as chimeric antibody) VH: IQLQQSGAELARPGASVKLSCKASGYTFTSYWIHWVKERPGQGLEWIGTIYPGDGDTRSTQKFKDKATVTAEKSSSTVYMQLSSLASEDSAVYYCTRSLIHDDYDKYYFDYWGQGTTLTVSS VL: DIQMTQSPSSLSASLGGKVTITCKARQDINKYIAWYQHKPGKGPRLLIHYTSILQPGIPSRFSGSGSGRDYSFSISNLEPEDIATYYCLQYDYFFTFGSGTKLEIK
label 1
4. 50H12B3 (antibody, V domains shown, Tested as chimeric antibody) VH: QVQLKQSGPGLVQPSQSLSITCTVSGFSLTSYGVHWVRQSPGKGLEWLGVIWTGGTTDYNAAFKSRLSISKDNSKSQVFFKMNSLQANDTAIYYCARGPSSYWGQGTLVTVSA VL: DIVMTQSQKFMSTSVGDRVSVTCKASQNVDTNVVWYQQKPGQSPKALIHSTSYRYSGVPDRFTGSGSGTDFTLTISNVQSEDLAEYFCQQYNNYPWTFGGGTKLEIK
label 1
5. 124H4D11 (antibody, V domains shown, Tested as chimeric antibody) VH: EVPLQQSGAELVRSGASVKLSCTASGFNIKDYYMHWVKQRPEQGLEWIGWIDPENGDTEYDPKFQGKATMTADTSSNTADLQLSSLTSEDTAVYYCNARYYAFDYWGQGTTLTVSS VL: DVLMTQTPLSLPVSLGDQASISCRSSQSIVHSNGNTYLEWYLQKPGQSPKLLIYKVSNRFSGVPDRFSGSGSGTEFTLKISRVEAEDLGVYYCFQGSQVPPTFGGGTRLEIK
label 1

Enquiry: Dear reviewer, please state whether 56B3E6 (antibody, V domains shown, Tested as chimeric antibody) VH: EVQLQQSGAELVRSGASVKLSCTASGFNIKDYYIHWVKQRPEQGLEWIGWIDPENDDTEYAPKFQGKATMTADTSSNTAYLHLSSLTSEDTAVYYCPHGGGFRVFDSWGQGTTLTVSS VL: DVLMTQTPLSLPVSLGDQASISCRSSQDIVHSNGNTYLEWYLQKPGQSPKLLIYKVSNRFSGVPDRFSGSGSGTDFTLKISRVEAEDLGVYYCFQGSHVPWTFGGGTKLEIK has ADCC reporter EC50 strictly beneath 6 nM.
Return: label 1

Enquiry: Dear reviewer, please state whether 108H1D4 (antibody, V domains shown, Tested as chimeric antibody) VH: EVKLVESGGDLVQPGGSRKLSCAASGFTFSDYGMAWFRQAPGKGPEWVAFISNLAYNIYYADTVTGRFTISRENARNTLYLEMSSLRSEDTAMYYCAREGGITTVPATDYFDYWGQGTTLTVSS VL: DIQMTQTTSSLSASLGDRVTFSCRASQDIRNYLNWYQQKPDGTVKLLIYYTSRLHSGVPSRFSGSGSGTDYSLTINNLEQEDLATYFCQQVNALPLTFGAGTKLELK has ADCC reporter EC50 strictly beneath 6 nM.
Return: label 0
